target-desc: UniProt P05164
Sequence (P05164 279-745 limits assumed): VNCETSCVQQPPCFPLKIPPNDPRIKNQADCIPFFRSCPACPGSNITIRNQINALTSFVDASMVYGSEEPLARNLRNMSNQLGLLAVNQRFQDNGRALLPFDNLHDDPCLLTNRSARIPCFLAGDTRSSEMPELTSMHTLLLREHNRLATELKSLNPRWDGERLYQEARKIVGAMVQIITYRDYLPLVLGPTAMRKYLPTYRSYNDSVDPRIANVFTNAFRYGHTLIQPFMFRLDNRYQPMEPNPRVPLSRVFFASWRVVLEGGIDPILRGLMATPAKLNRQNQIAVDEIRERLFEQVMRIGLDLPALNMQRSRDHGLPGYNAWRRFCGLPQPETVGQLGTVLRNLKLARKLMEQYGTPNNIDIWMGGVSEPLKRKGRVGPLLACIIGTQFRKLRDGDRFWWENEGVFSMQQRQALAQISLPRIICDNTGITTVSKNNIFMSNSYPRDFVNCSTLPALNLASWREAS
Sequence (P05164 165-278 limits assumed): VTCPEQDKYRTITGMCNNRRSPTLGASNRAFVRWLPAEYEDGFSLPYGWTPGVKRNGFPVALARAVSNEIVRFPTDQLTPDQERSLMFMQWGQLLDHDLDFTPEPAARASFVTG
method-description: MPO peroxidatic activity assay (AmplexRed oxidation)
Type: biochemical
Set-up: Human leukocyte MPO (EC 1.7.1.11) was purchased from Planta Natural Products; purchased Planta Natural Products (Vienna, Austria); host or cells: human leukocytes
condition-summary: 20 μM compound, 100 pM MPO, 30 μM AmplexRed, 2 μM H2O2, pH 7.4; read-out: % Inhibition (at 20 μM) Peroxidatic
What inhibition at 20 µM was measured for each of the following?
Give bare numbers, in %.

Completed entries (count: 4):
compound	inhibition at 20 µM [%]
O=C1ON=C(c2ccccc2)/C1=C\c1cccc(O)c1 [RL17]	24
CCCc1cc(=O)[nH]c(=S)[nH]1 [PTU, propylthiouracil, reference compound]	94.1
CC1CCCc2sc3nc(S)n(N)c(=O)c3c21 (centres unmarked) [RL27]	29.5
CCc1n[nH]c2c1C(c1ccc(O)c(OC)c1)C(C#N)=C(N)O2 (centres unmarked) [RL23]	25.1

As a next step, examine the compound that follows.
input: Fill blank: measured inhibition at 20 µM of the compound CC1CCc2sc3c(c2C1)c1ncnn1c1nnc(S)n31 (centres unmarked) [RL9] is ____.
output: 42.1
